target: b-Raf (V600E) (Homo sapiens (Human), UniProt P15056, V600E); settings: read-out: b-Raf IC-50; Table 2; AlphaScreen, 3 hours reaction
Sequence (P15056 whole entry V600E): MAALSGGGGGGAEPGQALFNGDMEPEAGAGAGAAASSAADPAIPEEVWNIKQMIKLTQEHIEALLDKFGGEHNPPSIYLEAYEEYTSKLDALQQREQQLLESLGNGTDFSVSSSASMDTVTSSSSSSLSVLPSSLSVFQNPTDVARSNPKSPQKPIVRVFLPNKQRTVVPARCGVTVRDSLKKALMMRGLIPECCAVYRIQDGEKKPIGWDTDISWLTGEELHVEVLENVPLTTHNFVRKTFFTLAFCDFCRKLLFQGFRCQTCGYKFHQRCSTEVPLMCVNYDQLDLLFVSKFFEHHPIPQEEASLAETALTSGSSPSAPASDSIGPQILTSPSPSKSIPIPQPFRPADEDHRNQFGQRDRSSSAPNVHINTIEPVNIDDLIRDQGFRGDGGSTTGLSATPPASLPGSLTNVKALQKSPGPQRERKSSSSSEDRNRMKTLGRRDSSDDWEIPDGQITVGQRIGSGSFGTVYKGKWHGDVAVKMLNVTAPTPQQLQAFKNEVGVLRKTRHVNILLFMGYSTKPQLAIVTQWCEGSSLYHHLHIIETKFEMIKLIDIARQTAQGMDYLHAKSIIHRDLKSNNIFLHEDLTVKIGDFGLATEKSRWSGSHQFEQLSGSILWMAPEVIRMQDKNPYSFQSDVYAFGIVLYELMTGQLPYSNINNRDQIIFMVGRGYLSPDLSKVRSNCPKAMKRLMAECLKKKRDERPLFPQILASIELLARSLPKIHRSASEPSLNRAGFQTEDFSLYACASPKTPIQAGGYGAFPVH
reported.property: IC50 (nM)
I only need the number, in nM, no unit after it.

Worked examples follow.
Cc1ncc(NC(=O)c2cccc(C(F)(F)F)c2)cc1-c1cnc(CS(C)(=O)=O)c(N2CCOCC2)c1 ... 3.9
Cc1ccc(NC(=O)c2cncc(N(C)C)c2)cc1-c1cc(N2CCOCC2)nc(N2CCOCC2)n1 ... 0.5
Cc1nn(C(C)C)cc1C(=O)Nc1cnc(C)c(-c2cc(N3CCOCC3)c(=O)n(C)c2)c1 ... 200
Cc1ccc(NC(=O)c2cc(C3CC3)on2)cc1-c1cc(N2CCOCC2)c(=O)n(C)c1 ... 0.7
Cc1ncc(NC(=O)c2ccnc(C(F)(F)F)c2)cc1-c1cnc(OC2CCOCC2)c(N2C3CCC2COC3)c1 ... 8.4
Cc1ccc(C(=O)Nc2cccc(C(C)(C)C#N)c2)cc1-c1cc(N2CCOCC2)c(=O)n(C)c1 ... 3.7
CCOc1ncc(-c2cc(NC(=O)c3cc(C(F)(F)F)c(=O)n(CC)c3)ccc2C)cc1N1CCOCC1 ... 1
Cc1ccc(NC(=O)c2cccc(C(F)(F)F)c2)cc1-c1cnc(N2CCOCC2)s1 ... 0.8

Fill in the recorded IC50 for this compound, with b-Raf (V600E) (Homo sapiens (Human), UniProt P15056, V600E) as test system: CCOc1ncc(-c2cc(NC(=O)c3cccc(-c4nnco4)c3)ccc2C)cc1N1CCOCC1
1.4

What do you get for Cn1cc(-c2cc(NC(=O)c3cccc(C(F)(F)F)c3)cnc2Cl)cc(N2CCOCC2)c1=O ?
1.4

What do you get for Cc1ccc(NC(=O)c2cccnn2)cc1-c1ccnc(N2CCOCC2)c1 ?
500

What do you get for Cc1ncc(NC(=O)c2cnnc(C(F)(F)F)c2)cc1-c1cnc(N(C)C)c(N2CCOCC2)c1 ?
0.5

---

molecular target: b-Raf (V600E) (Homo sapiens (Human), UniProt P15056, V600E); settings: read-out: b-Raf IC-50; Table 2; AlphaScreen, 3 hours reaction
Labelling field: enter 1 if recorded IC50 is less than 2 nM. Enter -1 if it equals or exceeds that cut-off.

Is 2 nM strictly greater than the compound's reported IC50? compound: Cc1ccc(NC(=O)c2cccc(C(F)(F)F)c2)cc1-c1cc(N2CCOCC2)nc(-n2ccnc2)n1 [Example 33]
1

What do you get for CCOc1ncc(-c2cc(NC(=O)c3cnnc(C(F)(F)F)c3)cnc2C)cc1N1CCOC[C@@H]1C [Example 286] ?
-1

What do you get for CCOc1ncc(-c2cc(NC(=O)c3cc(C4CC4)on3)cnc2C)cc1N1CCOCC1 [Example 245] ?
1

What do you get for Cc1ccc(NC(=O)c2cccc(OC(F)(F)F)c2)cc1-c1cc(N2CCOCC2)c(=O)n(C)c1 [Example 340] ?
-1

What do you get for CCOc1ncc(-c2cc(NC(=O)c3cnnc(C(F)(F)F)c3)cnc2C)cc1N1CCOCC1 [Example 259] ?
-1

What do you get for Cc1ccc(NC(=O)c2cnnc(C(F)(F)F)c2)cc1-c1cnc(OC2CCOCC2)c(N2CCOCC2)c1 [Example 275] ?
1

---

Catalogue of pIC50 readings, one per entry.
molecular target: b-Raf (V600E) (Homo sapiens (Human), UniProt P15056, V600E); assay: biochemical
Scale: pIC50 equals -log10([C]), with [C] in mol/L.

Worked examples follow.
CNCc1ccc(C(=O)Nc2cnc(C)c(-c3cc(N4CCOCC4)c4nccn4c3)c2)cc1C(F)(F)F ... 7.91
Cc1ccc(NC(=O)c2cccc(-c3nnco3)c2)cc1-c1cc2[nH]cnc2c(N2CCOCC2)n1 ... 8.11
Cc1ccc(NC(=O)c2cnnc(C(F)(F)F)c2)cc1-c1cc(N2CCOCC2)c(OC2CCOCC2)nn1 ... 9.22

Entry Cc1ncc(NC(=O)c2cccc(C(F)(F)F)c2)cc1-c1cnc(O[C@H](C)CO)c(N2CCOCC2)c1 : reported pIC50 = ?
8.59

What do you get for Cc1cc(C(=O)Nc2ccc(C)c(-c3cc4[nH]cnc4c(N4CCOCC4)n3)c2)n(C)n1 ?
6.70

What do you get for CCOc1ncc(-c2cc(C(=O)Nc3cccc(C(C)(C)O)c3)ccc2C)cc1N1CCOCC1 ?
8.80

What do you get for Cc1ccc(NC(=O)c2cc(C3CC3)on2)cc1-c1cc2[nH]cnc2c(N2CCOCC2)n1 ?
8.85

Hello, the source for this data is patent US9694016B2, in case you need it.
